Tested on: MAP3K2
Conditions: concentration: 1 μM, replicates: in singlicate; n = 1
Listed next: entries and their corresponding %Inh.
Give a bare numeral; the unit % is implied.

These recorded examples may help you get a feel for the data.
INSERT INTO measurements (compound, readout_label, recorded_result) VALUES
  ('Cc1cccc(-c2cc(Nc3ccncc3)c3ccccc3n2)n1', '%Inh', 0),
  ('Cl.c1ccc(-c2n[nH]cc2-c2ccnc(-c3ccc(CN4CCOCC4)cc3)c2)nc1', '%Inh', 18),
  ('CCCc1ccc(S(=O)(=O)NC2CCN(c3ccnc(Nc4ccc(F)cc4)n3)C2)cc1 (stereo not drawn)', '%Inh', 2),
  ('Cc1cccc(-c2nc(-c3ccc(S(C)(=O)=O)cc3)sc2-c2ccnc(NCCc3ccccc3)c2)c1', '%Inh', 0),
  ('Cl.O=C(Nc1cccc(-c2nn3ncccc3c2-c2ccnc(Nc3cccnc3)n2)c1)c1c(F)cccc1F', '%Inh', 16),
  ('CCn1c(-c2ccccn2)nc2cnccc21', '%Inh', 3),
  ('Fc1cc(Cl)ccc1Nc1ccnc2cc(-c3ccc(CN4CCCCC4)o3)ccc12', '%Inh', 0),
  ('Cc1cc(NCC(c2ccccc2)c2ccccc2)nc(NCc2ccc(C(F)(F)F)cc2)n1', '%Inh', 0),
  ('Fc1cccc(COc2nnc(-c3ccc4c(c3)CCO4)o2)c1', '%Inh', 0),
  ('Cc1ccc(C(=O)Nc2ccc(Nc3ccnc4cc(-c5ccccn5)ccc34)cc2O)cc1.Cl', '%Inh', 0);

The compound identified as Cc1csc(-c2nc(Nc3ccncc3)c3ccccc3n2)n1 registered its %Inh at 38

%Inh for COc1ccccc1CNC(=O)c1cc(C(=O)c2ccccc2C)c[nH]1 is 15

====

Test system: BMPR1B
Conditions: concentration: 1 μM, replicates: in singlicate; n = 1
Readout label: %Inh (%)
Express your answer in %, writing the number without its unit.

# annotated cases, reported %Inh shown
INSERT INTO measurements (molecule, test_target, recorded_result) VALUES
  ('Cc1cccc(-c2nc(Nc3ccc4[nH]ncc4c3)c3ccccc3n2)n1', 'BMPR1B', 34),
  ('Cc1cccc(-c2cc(Nc3ccncc3)c3ccccc3n2)n1', 'BMPR1B', 0),
  ('Cn1ccc2ncnc(Oc3ccc(NC(=O)Nc4ccccc4)cc3)c21', 'BMPR1B', 0);

I looked up CSc1nn2c(=O)cc(N3CCOCC3)nc2n1Cc1cccc(C(F)(F)F)c1C and its %Inh for BMPR1B was 0

Considering Cc1cc(N2Cc3ccccc3C2)nc(Nc2ccc(S(=O)(=O)N3CCOCC3)cc2)n1.Cl , its %Inh with BMPR1B was recorded as 0

Fill in: BMPR1B %Inh for Cc1ccc(NC(=O)Nc2cccc(Cl)c2)cc1-c1ccc(C(=O)Nc2ccncc2)cc1 = 0

====

Listing: %Inh of selected molecules
Test system: JNK3
Construct: gene MAPK10
Conditions: concentration: 1 μM, replicates: in singlicate; n = 1
State just the number; it will be interpreted in %.

INSERT INTO results (molecule, readout_label, recorded_result) VALUES
  ('Cc1cc(N2Cc3ccccc3C2)nc(Nc2ccc(S(=O)(=O)N3CCOCC3)cc2)n1.Cl [GSK1669917]', '%Inh', 1),
  ('COc1cccc(-c2cc(-c3c[nH]nc3-c3ccccn3)ccn2)c1 [GW680338]', '%Inh', 50),
  ('CN(C)CCN(C)C(=O)c1cc(-c2ccncc2)c(-c2ccc(Cl)c(O)c2)o1.Cl.Cl [SB-710397]', '%Inh', 35);

Here's the next entry for you.
The value of %Inh measured for the molecule COc1ccc(CNC(=O)NC2CCN(c3ccnc(Nc4cc(OC)c(OC)c(OC)c4)n3)C2)cc1 (stereo not shown) [GSK1379748] turned out to be 0

====

Test system: CDK8
Conditions: concentration: 1 μM, replicates: in singlicate; n = 1
Readout label: %Inh (%)
Numeric answer only, unit % assumed.

Illustrative cases are given below, each with its answer.
INSERT INTO results (compound, test_target, readout_label, recorded_result) VALUES
  ('CN(C)CCN(C)C(=O)c1cc(-c2ccncc2)c(-c2ccc(Cl)c(O)c2)o1.Cl.Cl', 'CDK8', '%Inh', 37),
  ('CCCc1ccc(S(=O)(=O)NC2CCN(c3ccnc(Nc4ccc(F)cc4)n3)C2)cc1 (centres unmarked)', 'CDK8', '%Inh', 0),
  ('COc1ccc(C2=C(Nc3cccc(C(=O)O)c3)C(=O)NC2=O)cc1', 'CDK8', '%Inh', 0),
  ('Cc1ccc(NC(=O)Nc2cccc(Cl)c2)cc1-c1ccc(C(=O)Nc2ccncc2)cc1', 'CDK8', '%Inh', 0),
  ('CC(=O)Nc1nc2cnc(Nc3cc(NC(=O)c4cccc(CCC#N)c4)ccc3C)nc2s1', 'CDK8', '%Inh', 5),
  ('Fc1cc(Cl)ccc1Nc1ccnc2cc(-c3ccc(CN4CCCCC4)o3)ccc12', 'CDK8', '%Inh', 28);

According to the records, this compound COc1ccc(CNC(=O)NC2CCN(c3ccnc(Nc4cc(OC)c(OC)c(OC)c4)n3)C2)cc1 (centres unmarked) displays %Inh of 51

For reference, reported %Inh for COc1cccc(-c2cc(-c3c[nH]nc3-c3ccccn3)ccn2)c1 stands at 44

====

compounds and their reported pKd
Test system: AKT3
pKd: −log10 of the molar value.

Observed pKd on AKT3, entry Nc1nc(-c2nccs2)c(-c2ccnc3ccccc23)s1 [GW693542] , equals < 5.00

Recorded pKd for Cc1c(Cn2ccn3c(=O)cc(N4CCOCC4)nc23)cccc1C(F)(F)F [GSK2289044] on AKT3 was < 5.00

====

Test system: EPHA7
Details: concentration: 1 μM, replicates: in singlicate; n = 1
Below, each of the molecules is paired with its reported %Inh value.
State the answer as a number, implicitly in %.

Below are worked cases with known answers.
INSERT INTO assay_data (molecule, unit_abbrev, recorded_result) VALUES
  ('Cc1nnc(-c2ccc3occ(-c4ccc(S(C)=O)cc4)c3c2)[nH]1 (stereo not shown)', '%', 7),
  ('Cl.Oc1ccc(-c2nc(-c3ccccc3)[nH]c2-c2ccncc2)cc1', '%', 0),
  ('Cl.O=C(Nc1cccc(-c2nn3ncccc3c2-c2ccnc(Nc3cccnc3)n2)c1)c1c(F)cccc1F', '%', 7),
  ('Cc1cccc(-c2nc(Nc3cccc(C(N)=O)c3)c3ccccc3n2)n1', '%', 3),
  ('Nc1nc(-c2nccs2)c(-c2ccnc3ccccc23)s1', '%', 10);

Measured %Inh of Fc1cc(Cl)ccc1Nc1ccnc2cc(I)ccc12 : 6

get_value(item= COC(=O)c1c(-c2ccccc2)c2cc(C(=O)O)ccc2c(=O)n1Cc1ccccc1 , readout=%Inh) returns 0

Entry COc1ccc(C2=C(Nc3cccc(C(=O)O)c3)C(=O)NC2=O)cc1 ; %Inh = 0

Query CCn1c(-c2cccnc2O)nc2cnccc21 yields %Inh of 0

Consider COc1cc2ncnc(Nc3ccc4nc(-c5ccccc5)[nH]c4c3)c2cc1OC.Cl . Its measured %Inh is 0

====

System: MAP4K5
Readout label: Kd

Simply: COc1cccc(NC(=O)NC2CCN(c3ccnc(Nc4ccc(F)cc4)n3)C2)c1 (stereo not shown) [GSK1379721] , MAP4K5, Kd = > 10 µM

====

Tested on: WNK3
Settings: concentration: 1 μM, replicates: in singlicate; n = 1
Property: %Inh; scope: individual compounds
Form entry: value (%) — number only.

The following compounds have reported results that may help.
INSERT INTO results (compound, readout_label, unit_abbrev, recorded_result) VALUES
  ('Cl.c1ccc(-c2n[nH]cc2-c2ccnc(-c3ccc(CN4CCOCC4)cc3)c2)nc1 [GW776245]', '%Inh', '%', 0),
  ('CS(=O)(=O)c1ccc(-c2c(-c3ncn[nH]3)sc(N3CCOCC3)c2C#N)cc1', '%Inh', '%', 0),
  ('COc1ccc(C2=C(Nc3cccc(C(=O)O)c3)C(=O)NC2=O)cc1 [SB-390765]', '%Inh', '%', 23),
  ('Cc1csc(-c2nc(Nc3ccncc3)c3ccccc3n2)n1 [GW869640]', '%Inh', '%', 33),
  ('Fc1cccc(COc2nnc(-c3ccc4c(c3)CCO4)o2)c1', '%Inh', '%', 0),
  ('Cc1cc(N2Cc3ccccc3C2)nc(Nc2ccc(S(=O)(=O)N3CCOCC3)cc2)n1.Cl [GSK1669917]', '%Inh', '%', 2),
  ('CCn1c(-c2ccccn2)nc2cnccc21 [SB-736398]', '%Inh', '%', 37),
  ('Cn1ccc2ncnc(Oc3ccc(Nc4nc5ccccc5[nH]4)cc3)c21', '%Inh', '%', 0),
  ('CC(C)(C)c1ccc(C(=O)Nc2cn3cc(-c4cccnc4)ccc3n2)cc1', '%Inh', '%', 0);

# ---- query compound ----
Summary for this compound, NC(=O)c1nnc2ccccc2c1N : %Inh is 0

Numbers sourced from paper PMC5540273.
